- method: qHTS assay to identify small molecule antagonists of the thyroid receptor (TR) signaling pathway (AID 743065); note: nearly all actives have a fitted effect of over 55% in size; note: potency is the fitted concentration of half-maximal effect
- condition details: GH3.TRE-Luc, T3-stimulated luciferase inhibition, 23.5 h; series mostly up to 70.3 µM
Results filed as inconclusive are left out. Activity calls are given as the source filed them. Calls come from the whole dose curve; as a rule, active = well fitted inhibition curve with a large enough effect in the repeat runs; inconclusive = weak or mixed curves; inactive = no such curve, though single readings can be large or run the other way.
quantity measured: Potency

Consider the following illustrative entries.
CC(C)[C@H](C(=O)OC(C#N)c1cccc(Oc2ccccc2)c1)c1ccc(OC(F)F)cc1 (some centres undefined) ... 54.5 µM (active)
CC(C)CCCCCOC(=O)c1ccccc1C(=O)OCCCCCC(C)C ... inactive
ClC1=C(Cl)C2(Cl)C3C(Cl)C(Cl)CC3C1(Cl)C2(Cl)Cl (centres undefined) ... 24.3 µM (active)
CCCN(CCC)c1c([N+](=O)[O-])cc(S(N)(=O)=O)cc1[N+](=O)[O-] ... 30.6 µM (active)
BrCBr ... inactive

Prompt line: // Input: O=C1c2ccccc2C(=O)C1C(=O)C(c1ccccc1)c1ccc(Cl)cc1 (centres undefined) . Output its Potency only.
Response line: 15.4 µM (active)

Prompt line: Respond only with Potency recorded for O=C(CBr)c1ccc(O)cc1
Response line: inactive

Prompt line: Give the reported value of Potency for this record: C[C@H]1O[C@@H](O[C@H]2[C@@H](O)C[C@H](O[C@H]3[C@@H](O)C[C@H](O[C@H]4CC[C@@]5(C)[C@H](CC[C@@H]6[C@@H]5CC[C@]5(C)[C@@H](C7=CC(=O)OC7)CC[C@]65O)C4)O[C@@H]3C)O[C@@H]2C)C[C@H](O)[C@@H]1O
Response line: inactive

Prompt line: Please indicate Potency recorded for O=[N+]([O-])c1cc(C(F)(F)F)c(Cl)c([N+](=O)[O-])c1Cl
Response line: 0.386 µM (active)

----------
- method: qHTS assay to identify small molecule agonists of the constitutive androstane receptor (CAR) signaling pathway - cell viability counter screen (AID 1224836); note: nearly all actives have a fitted effect of over 45% in size
- condition details: HepG2-CYP2B6-hCAR viability, CellTiter-Fluor, 23 h, PK11195 added to every well; series mostly up to 92.4 µM
Results filed as inconclusive are left out. Calls of active or inactive are those of the source. Calls come from the whole dose curve; as a rule, active = well fitted cell-killing curve with a large enough effect in the repeat runs; inconclusive = weak or mixed curves, or effect the other way; inactive = flat fitted curve, though single readings scatter.
Allowed answers: active, inactive

O=C/C(Cl)=C(/Cl)C(=O)O ... inactive
CCc1cc(C)cc(CC)c1-c1c(OC(=O)C(C)(C)C)n2n(c1=O)CCOCC2 ... inactive
N#CCCSCCC#N ... inactive

Prompt line: What is the recorded call for this molecule in the test? CCCN(CCC)CCc1c[nH]c2ccccc12
Response line: inactive

Prompt line: Called result for C1CCC2CCCCC2C1 (stereo unspecified)
Response line: inactive

Prompt line: Called result for COP(=S)(OC)Oc1cc(Cl)c(Br)cc1Cl
Response line: inactive

Prompt line: Check the results log: what was the call for ClC1=C(Cl)C2(Cl)C3C(Cl)C(Cl)CC3C1(Cl)C2(Cl)Cl (stereo unspecified) ?
Response line: inactive

Prompt line: Could you kindly confirm the outcome this assay logged for CCCCCCCCCCBr ?
Response line: inactive

Prompt line: Which result was noted for this molecule in the test: [Cl][Sb]([Cl])[Cl]
Response line: inactive

Prompt line: I'd appreciate the recorded outcome for CS(=O)(=O)c1ccc(C(=O)C2C(=O)CCCC2=O)c([N+](=O)[O-])c1 from this test.
Response line: inactive

Prompt line: Assay outcome for CN(C)CCc1c[nH]c2cccc(O)c12 : what was it?
Response line: inactive

Prompt line: Identify the outcome logged in this assay for the molecule shown: CCCSP(=O)(OCC)SCCC
Response line: inactive

Prompt line: // return assay outcome for S=C=Nc1cccc2ccccc12
Response line: active

Prompt line: Hi team, can someone confirm the assay call for COc1cc(C=O)cc2c1[C@H](COC(N)=O)[C@]1(OC(C)=O)ON2C[C@H]2[C@@H]1N2C(C)=O ?
Response line: active

Prompt line: Recorded call for CCOP(=S)(OCC)SCS(=O)(=O)CC ?
Response line: inactive

Prompt line: Please let me know the test result on file for C=CCOC(N)=O .
Response line: inactive

Prompt line: Hi, sorry to bother you, what did the test record for C[C@@H]1O[C@@H](O[C@@H]2C=C3CC[C@@H]4[C@H](CC[C@]5(C)[C@@H](c6ccc(=O)oc6)CC[C@]45O)[C@@]3(C)CC2)[C@H](O)[C@H](O)[C@H]1O ?
Response line: active

Prompt line: For NC(=O)c1ccc(N)nc1 , what call appears in the results of this test?
Response line: inactive
